From: paper PMC3155816

TESTED TARGET: vaccinia E9 DNA polymerase with A20 and D4 (processivity complex) (Vaccinia virus, UniProt P04303)
EXPERIMENT: biochemical
MEASUREMENT KIND: IC50 (µM)
Supply the numeric figure in µM, leaving out any unit text.

Request: Please report the recorded IC50 for O=C1c2ccccc2-c2onc3c(NCCO)cc(NC4CCCCC4)c1c23 [Compound 9] .
Response: 34.1

----------
EXPERIMENT: Solubility in PBS by chemiluminescence of total nitrogen
Format: physicochemical
Task for the reader: assign each of the following compounds its reported solubility.
Write down the numeric answer in µM and omit the unit.

Request: Looking for the measured solubility of Cc1cc2n(n1)C(c1cc(C(C)(C)C)c(O)cc1O)Nc1ccccc1-2 (stereo not shown) , can you help?
Response: 54.7

Request: Entry Cn1c(=O)n(C)c2cc(NS(=O)(=O)c3ccc(C(C)(C)C)cc3)c(NCc3ccccc3)cc21 : reported solubility = ?
Response: 1.9

Request: // returns reported solubility for input COc1cc(-c2nc(-c3ccccc3)c(-c3ccc(Br)cc3)[nH]2)cc(OC)c1O
Response: 3.2

Request: Which solubility is listed for Oc1ccc(NCc2ccccc2OCc2ccccc2)cc1 ?
Response: 3.5

----------
EXPERIMENT: Cytotoxicity by LDH release
Assay type: cell-based
CONDITION LABEL: African green monkey, BSC-1 cells
MEASUREMENT KIND: CC50 at 20 h
Put down the number, then write its unit next to it.

Request: Requested read-out: CC50 at 20 h. Entry: O=C1c2ccccc2-c2onc3c(NCCO)cc(NC4CCCCC4)c1c23
Response: 127 µM
